Form field: TGI (one value per entry).
Tested on: T-47D breast
Test: NCI tumour cell line growth inhibition, 48 h
recorded.endpoint: TGI

>>> recorded_result("CCN(CC)c1ccc(/C=c2\\nc(-c3ccccc3)n3c2nc2ccccc23)cc1")
"5.84 µM"
>>> recorded_result("COc1c(C)c2c(c(O)c1C/C=C(\\C)CCC(=O)OCCN1CCOCC1)C(=O)OC2")
"> 100 µM"
>>> recorded_result("NC(CCl)=NC1CN2CCC1CC2 (centres undefined)")
"> 100 µM"
>>> recorded_result("Fc1ccc(C2NC(=S)NC3=C2CCOc2c3ccc3ccccc23)cc1 (centres undefined)")
"9.44 µM"
>>> recorded_result("Cc1c(NC(=S)N/N=C\\C(=N/NC(=S)Nc2c(C)n(C)n(-c3ccccc3)c2=O)c2ccccc2)c(=O)n(-c2ccccc2)n1C")
"> 100 µM"
>>> recorded_result("CC1(C)NCCC[C@]2(C)[C@H]3C=CC4=C5C[C@](C)(CO)CC[C@]5(C)CC[C@@]4(C)[C@]3(C)CC[C@@H]12")
"20.9 µM"
>>> recorded_result("Cc1ccc(S(=O)(=O)Nc2nc3ccccc3c(=O)n2C2CCCCC2)cc1")
"> 100 µM"
>>> recorded_result("CC(=O)c1cc2c(s1)C(=O)c1scc(C(C)=O)c1C2=O")
"0.838 µM"
>>> recorded_result("COc1cc(NC(=O)c2cc(OC)c3ccn(C)c3c2)cc2c1C[C@]1(C)CC[C@@H](O)C(C)(C)[C@H]1O2")
"> 100 µM"

====

Form field: TGI (one value per entry).
System: M14 melanoma
Assay: NCI tumour cell line growth inhibition, 48 h
recorded.endpoint: TGI

>>> recorded_result("CC(=O)Nc1nc(SCc2ccccc2)c2ncn(C(C)=O)c2n1")
"> 100 µM"
>>> recorded_result("COc1ccc(/C=C2\\Sc3nnc(C)n3N=C2c2cc(F)c(Cl)cc2Cl)cc1OC")
"27.5 µM"
>>> recorded_result("COC(=O)NC/C=C\\c1nc(CC/C=C\\C(=O)OC2CC3CC(=O)O[C@H](/C=C/CC(C)C)C[C@H]4CCC(C)C(C[C@H](OC)CC(C2)O3)O4)co1 (some centres undefined)")
"> 100 µM"
>>> recorded_result("CSc1nc2c(c(=O)n1C)N=C(c1ccc(Cl)cc1)CC(c1ccccc1)N2 (centres undefined)")
"34.7 µM"
>>> recorded_result("COC(=O)C1=COC(C)C2C[n+]3ccc4c([nH]c5ccccc54)c3CC12 (centres undefined)")
"> 100 µM"
>>> recorded_result("Cc1ccc2ccc(=O)oc2c1")
"> 100 µM"
>>> recorded_result("O=[N+]([O-])c1ccc(-c2nc(N(CCO)CCO)c3ccccc3n2)o1")
"0.316 µM"
>>> recorded_result("C=C(Cl)COC(=O)Nc1cccc(Cl)c1")
"> 100 µM"
>>> recorded_result("CCCc1ccc(S(=O)(=O)N[C@H]2CC[C@H]3[C@@H]4CCc5cc(O)ccc5[C@H]4CC[C@]23C)cc1")
"10.3 µM"
>>> recorded_result("CC(=O)C1CC2(c3ccc(C)cc3)C(c3ccc(C)cc3)=C(c3ccc(C)cc3)C1(c1ccc(C)cc1)S2=O (centres undefined)")
"> 100 µM"
>>> recorded_result("O=C(/C=C/C=C/c1ccccc1)CCc1ccccc1")
"> 100 µM"
>>> recorded_result("S=c1[nH]c(=S)c2sc(=S)n(-c3ccccc3)c2[nH]1")
"> 100 µM"
>>> recorded_result("[N-]=[N+]=NC1=NNC2(C(=O)N1)c1ccccc1-c1ccccc12")
"> 100 µM"
>>> recorded_result("CC1=NC2(CCCCC2)N(Cl)C(=O)C1SC#N (centres undefined)")
"34.4 µM"
>>> recorded_result("C/C=C(\\C)C(=O)N[C@H]1[C@@H](OC(C)=O)C[C@]2(C)C3CC[C@@]4(C)C(CC[C@@H]4C(C)N(C)C)C3CCC2[C@H]1O (some centres undefined)")
"3.72 µM"
>>> recorded_result("C=C1CC[C@@]2(C#N)[C@H]3[C@H](CC[C@@H]2C)[C@@H](C)C[C@@H](CC(C)(C)C#N)[C@H]13")
"12.5 µM"
>>> recorded_result("C=C(C)[C@@H]1CC[C@]2(CO)CC[C@]3(C)[C@H](CC[C@@H]4[C@@]5(C)CC[C@H](O)C(C)(C)[C@@H]5CC[C@]43C)[C@@H]12")
"> 100 µM"
>>> recorded_result("C=CCn1c(-c2ccccc2)cs/c1=N\\C(P(=O)(O)O)P(=O)(O)O")
"> 100 µM"
>>> recorded_result("O=C1c2cc([N+](=O)[O-])cnc2S(=O)(=O)N1c1ccc(Br)cc1")
"> 100 µM"

====

Tested on: HOP-62 NSCLC
Assay: NCI tumour cell line growth inhibition, 48 h
recorded.endpoint: GI50

>>> recorded_result("N#CC1=C(N)OC2=C(COc3ccc(F)cc32)C1c1ccc(Cl)cc1 (stereo unspecified)")
"38.3 µM"
>>> recorded_result("C=C1C[C@@H]2C/C=C/C(=O)C/C(C)=C\\C=C\\C(=O)O[C@H](C=O)C/C(C)=C/[C@H](C1)O2")
"1.75 µM"
>>> recorded_result("CCCCCNC(=O)[C@@H]1CCCN2C(=O)CC[C@H](NC(=O)[C@H](Cc3ccc(OP(=O)(O)O)cc3)NC(C)=O)C(=O)N12")
"> 25 µM"
>>> recorded_result("CCOC(=O)CCCn1c(SC)nc2cc(-c3ccco3)[nH]c2c1=O")
"37 µM"
>>> recorded_result("C/C=C(\\C)C(=O)N[C@H]1[C@@H](OC(C)=O)C[C@]2(C)C3CC[C@@]4(C)C(CC[C@@H]4C(C)N(C)C)C3CCC2[C@H]1O (stereo partly specified)")
"3.42 µM"
>>> recorded_result("O=C(Nc1ccc(-n2cc(-c3ccncc3)c(-c3ccc(Cl)c(O)c3)n2)cc1)Nc1cc(C(F)(F)F)cc(C(F)(F)F)c1")
"1.8 µM"
>>> recorded_result("COc1ccc(/C=C2\\CN(C(=O)C(Cl)Cl)C/C(=C\\c3ccc(OC)c(OC)c3)C2=O)cc1OC")
"0.883 µM"
>>> recorded_result("C=C1C(=O)O[C@@H]2C1C[C@@H](O)/C(C)=C/C/C=C(\\C)CCC[C@H](C)[C@H]2OC(C)=O (stereo partly specified)")
"45.4 µM"
>>> recorded_result("O=C(Nc1ccc(-n2cc(-c3ccncc3)c(-c3ccc(O)c(Cl)c3)n2)cc1)c1cc(Cl)cc(Cl)c1")
"2.87 µM"
>>> recorded_result("O=C1CCCCCCCC/C=C/CCC(c2ccco2)O1 (stereo unspecified)")
"41.2 µM"
>>> recorded_result("N#CC1=C(N)N=C(N2CCCCC2)C(C#N)C12Nc1ccccc1S2 (stereo unspecified)")
"27.7 µM"
>>> recorded_result("CC1(C)OC[C@@H]([C@@]2(CO[Si](C)(C)C(C)(C)C)CC=CC(=O)O2)O1")
"31 µM"
>>> recorded_result("CC(=O)Nc1nc(SCc2ccccc2)c2ncn(C(C)=O)c2n1")
"62.7 µM"
>>> recorded_result("COc1cc(Cl)cc(-c2nn(C(=O)NCCN3CCN(C)CC3)cc2-c2ccncc2)c1")
"5.87 µM"
>>> recorded_result("NCCCC(=O)Nc1ccncc1")
"> 100 µM"
>>> recorded_result("N#CC1=C(N)NC(=S)NC12Nc1ccccc1O2 (stereo unspecified)")
"17.5 µM"

====

Form field: TGI (one value per entry).
Tested on: TK-10 renal
Experiment: NCI tumour cell line growth inhibition, 48 h
recorded.endpoint: TGI

>>> recorded_result("CCOC(O)C(F)(F)F (stereo unspecified)")
"> 100 µM"
>>> recorded_result("CC(/C=N/N(C)C1=NCCCCN1)=N/N(C)C1=NCCCCN1")
"> 100 µM"
>>> recorded_result("NC(Cc1ccccc1)=NCC(=O)O")
"> 100 µM"
>>> recorded_result("O=C(Nc1ccc(Cl)cc1)c1cccc([N+](=O)[O-])c1O")
"> 44.4 µM"
>>> recorded_result("N#CCN1CCCCCc2ccccc21")
"> 100 µM"
>>> recorded_result("Fc1ccc(Oc2nccc(-c3c(-c4ccc(F)cc4)ncn3C3CCNCC3)n2)cc1")
"> 25 µM"
>>> recorded_result("CC(=O)NC1=C(Nc2ccc(C)cc2)C(=O)c2ccccc2C1=O")
"> 75 µM"
>>> recorded_result("COC1/C=C\\C=C(/C)C(=O)Nc2cc3nc4ccc(Br)cc4oc-3c(c2=O)CC(C)CC(OC)C(O)C(C)/C=C(\\C)C1OC(N)=O (stereo unspecified)")
"17.6 µM"
>>> recorded_result("OC(C1=C/C(=C\\c2ccncc2)c2ccccc21)c1ccncc1 (stereo unspecified)")
"32.3 µM"
>>> recorded_result("O=C(Nc1ccc(-n2cc(-c3ccncc3)c(-c3ccc(Cl)c(O)c3)n2)cc1)Nc1cc(C(F)(F)F)cc(C(F)(F)F)c1")
"11.4 µM"
>>> recorded_result("COC(=O)c1c(C)ccc2c(O)c3c(cc12)C(=O)c1c2c(cc(O)c1C3=O)C1(C)OC(C)(O2)C(O)C(N(C)C)C1O (stereo unspecified)")
"2.68 µM"
>>> recorded_result("CC(C)=CC(C)C(C(O)CCC1(c2ccoc2)OCCO1)S(=O)(=O)c1ccccc1 (stereo unspecified)")
"> 100 µM"
>>> recorded_result("CCCN=C1Nc2ccccc2[C@@H]2N(C)c3ccccc3C(C)C[C@]12C (stereo partly specified)")
"34.2 µM"
>>> recorded_result("N=C1c2nc3n(c2C(=O)c2nc4n(c21)CCCC4)CCCC3")
"> 100 µM"
>>> recorded_result("Cn1nc(-c2ccccc2)c(N=[N+]=[N-])cc1=O")
"> 100 µM"
>>> recorded_result("O=c1[nH]nc(-c2ccc([N+](=O)[O-])cc2)n1/N=C/c1ccc([N+](=O)[O-])cc1")
"> 100 µM"
>>> recorded_result("COC(=O)C1=C(O)C(C(=O)OC)[C@]2(O)[C@H](C(=O)OC)[C@H]1C[C@@H](c1cccc(OC)c1)[C@H]2C(=O)OC (stereo partly specified)")
"> 100 µM"
>>> recorded_result("Nc1ccc(C(=O)c2ccc(N)c(Br)c2)cc1Br")
"21.5 µM"
>>> recorded_result("COc1ccc(/C=C2\\Sc3nnc(C)n3N=C2c2cc(F)c(Cl)cc2Cl)cc1OC")
"32.8 µM"
>>> recorded_result("CC1(C)OC[C@@H]([C@@]2(CO[Si](C)(C)C(C)(C)C)CC=CC(=O)O2)O1")
"40.7 µM"
>>> recorded_result("c1ccc2[nH]c(SSc3nc4ncncc4[nH]3)nc2c1")
"> 37.3 µM"
